Record: Ki reported on UniProt P21397.
Sequence (P21397 whole entry): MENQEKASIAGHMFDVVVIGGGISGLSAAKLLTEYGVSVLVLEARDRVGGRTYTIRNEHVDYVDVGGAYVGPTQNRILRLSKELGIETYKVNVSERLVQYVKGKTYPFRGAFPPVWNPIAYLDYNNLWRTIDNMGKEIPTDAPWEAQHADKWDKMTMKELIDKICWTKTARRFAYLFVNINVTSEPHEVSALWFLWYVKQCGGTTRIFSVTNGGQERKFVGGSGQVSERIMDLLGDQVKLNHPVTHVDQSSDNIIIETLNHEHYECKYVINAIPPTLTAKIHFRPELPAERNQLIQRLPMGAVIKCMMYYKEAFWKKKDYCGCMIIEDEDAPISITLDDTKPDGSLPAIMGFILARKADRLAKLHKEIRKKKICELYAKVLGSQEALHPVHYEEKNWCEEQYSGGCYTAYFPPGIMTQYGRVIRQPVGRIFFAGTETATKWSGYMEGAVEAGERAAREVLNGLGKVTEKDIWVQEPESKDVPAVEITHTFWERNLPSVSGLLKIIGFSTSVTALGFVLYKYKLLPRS

- Compound: "CN(C)Cc1c(O)ccc2c(-c3cc4cc(Cl)ccc4oc3=O)cc(=O)oc12 [Compound 2b]"
  Ki: "272 nM"

Per the records, this compound ( CCCCN(C)Cc1c(O)ccc2c(-c3cc4cc(Cl)ccc4oc3=O)cc(=O)oc12 [Compound 5b] ) has Ki equal to 326 nM

----------
# Target or system: electric eel eeAChE (Electrophorus electricus)
# Construct: Acetylcholinesterase from electric eel and butyrylcholinesterase from equine serum (Sigma Aldrich) were employed
# Sequence (O42275 24-633): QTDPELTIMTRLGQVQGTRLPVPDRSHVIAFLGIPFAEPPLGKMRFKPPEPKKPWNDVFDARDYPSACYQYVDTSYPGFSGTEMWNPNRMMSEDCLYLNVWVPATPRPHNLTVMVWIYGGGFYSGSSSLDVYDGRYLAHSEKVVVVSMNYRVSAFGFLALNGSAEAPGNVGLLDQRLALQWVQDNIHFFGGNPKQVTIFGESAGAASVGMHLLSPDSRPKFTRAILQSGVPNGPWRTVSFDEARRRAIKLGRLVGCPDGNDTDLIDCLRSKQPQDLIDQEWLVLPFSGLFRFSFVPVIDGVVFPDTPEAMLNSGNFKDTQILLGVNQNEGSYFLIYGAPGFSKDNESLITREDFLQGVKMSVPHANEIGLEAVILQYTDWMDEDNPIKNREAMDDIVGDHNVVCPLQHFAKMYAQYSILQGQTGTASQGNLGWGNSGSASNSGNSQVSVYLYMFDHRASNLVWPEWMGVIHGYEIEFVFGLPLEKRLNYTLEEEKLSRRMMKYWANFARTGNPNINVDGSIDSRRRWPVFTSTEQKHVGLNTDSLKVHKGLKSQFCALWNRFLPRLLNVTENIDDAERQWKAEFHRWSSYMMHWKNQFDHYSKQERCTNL
# Assay explanation: biochemical
# Run parameters: mean ± SD of three independent determinations; ~10 means 50–60% inhibition at 10 µM
pIC50: −log10 of the molar value.
Measurement type: pIC50

- Compound string: "COc1cccc2cc(-c3cc(=O)oc4c(CN(CC(C)C)CC(C)C)c(O)ccc34)c(=O)oc12"
  pIC50: "~5.00"

Give me pIC50 for each of these compounds, listed below.
1. COc1cccc2cc(-c3cc(=O)oc4c(CN(C)Cc5ccccc5)c(O)ccc34)c(=O)oc12
2. CN(C)Cc1c(O)ccc2c(-c3cc4cc(Cl)ccc4oc3=O)cc(=O)oc12

Key:
1. ~5.00
2. ~5.00

----------
# Target or system: human huAChE (Homo sapiens, UniProt P22303)
# Sequence (P22303 32-614): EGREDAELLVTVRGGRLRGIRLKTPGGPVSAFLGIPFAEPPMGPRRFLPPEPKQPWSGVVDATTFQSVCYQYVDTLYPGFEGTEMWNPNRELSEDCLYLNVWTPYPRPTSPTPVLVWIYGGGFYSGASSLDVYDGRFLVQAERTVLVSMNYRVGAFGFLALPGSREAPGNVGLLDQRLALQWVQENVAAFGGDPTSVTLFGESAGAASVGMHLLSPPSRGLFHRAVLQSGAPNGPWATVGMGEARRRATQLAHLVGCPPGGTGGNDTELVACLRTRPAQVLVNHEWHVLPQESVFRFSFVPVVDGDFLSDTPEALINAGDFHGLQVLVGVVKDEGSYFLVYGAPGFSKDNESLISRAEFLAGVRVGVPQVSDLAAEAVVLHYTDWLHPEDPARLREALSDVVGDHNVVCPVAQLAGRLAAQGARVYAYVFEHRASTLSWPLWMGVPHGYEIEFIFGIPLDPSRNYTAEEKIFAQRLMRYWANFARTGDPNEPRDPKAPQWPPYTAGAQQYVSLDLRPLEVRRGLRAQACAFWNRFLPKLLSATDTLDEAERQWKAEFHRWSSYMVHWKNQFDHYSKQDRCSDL
# Assay explanation: biochemical
# Assay type: biochemical
# Run parameters: mean ± SD of three independent determinations; ~10 means 50–60% inhibition at 10 µM
Measurement type: IC50

The molecule CCCCN(C)Cc1c(O)ccc2c(-c3cc4cc(Cl)ccc4oc3=O)cc(=O)oc12 on human huAChE (Homo sapiens, UniProt P22303): IC50 was ~10 µM

----------
# Target or system: human huMAO-B (Homo sapiens, UniProt P27338)
# Construct: purchased Sigma Aldrich; host or cells: insect cells infected with baculovirus (microsomes)
# Sequence (P27338 whole entry): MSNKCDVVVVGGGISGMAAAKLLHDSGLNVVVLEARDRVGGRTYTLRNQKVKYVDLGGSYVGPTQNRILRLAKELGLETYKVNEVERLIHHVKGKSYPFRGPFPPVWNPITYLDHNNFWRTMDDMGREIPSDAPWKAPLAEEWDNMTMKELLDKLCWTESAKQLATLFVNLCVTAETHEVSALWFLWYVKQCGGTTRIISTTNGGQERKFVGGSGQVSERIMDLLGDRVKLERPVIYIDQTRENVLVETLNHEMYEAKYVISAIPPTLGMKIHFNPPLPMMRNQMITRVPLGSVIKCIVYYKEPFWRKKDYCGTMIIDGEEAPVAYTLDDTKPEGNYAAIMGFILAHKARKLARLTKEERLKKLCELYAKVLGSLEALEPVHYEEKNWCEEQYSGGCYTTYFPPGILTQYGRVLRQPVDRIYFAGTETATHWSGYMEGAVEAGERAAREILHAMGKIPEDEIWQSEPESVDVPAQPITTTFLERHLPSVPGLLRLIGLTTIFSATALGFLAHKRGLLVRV
# Assay explanation: biochemical
# Type: biochemical
# Run parameters: mean ± SD of three independent determinations; ~10 means 50–60% inhibition at 10 µM
pIC50: −log10 of the molar value.
Give measured pIC50 for each item. Keep answers brief.

- Molecule: "CCCCN(C)Cc1c(O)ccc2c(-c3cc4cc(Cl)ccc4oc3=O)cc(=O)oc12 [Compound 5b]"
  Measurement type: "pIC50"
  Test result: "~5.00"

Per the records, this molecule ( CCCCN(C)Cc1c(O)ccc2c(-c3cc4cc(Br)ccc4oc3=O)cc(=O)oc12 [Compound 5c] ) has pIC50 equal to ~5.00
